# 100 nM Ag Bound (RU) listing for each entry below
Target: T1, recombinant human CD63 extracellular loop 2 expressed with a C-terminal human Fc tag (human)
T1 construct: also called hCD63 EC loop 2-hFc; human CD63 EC loop 2-Fc
T1 sequence (chain, as listed by the source limits assumed): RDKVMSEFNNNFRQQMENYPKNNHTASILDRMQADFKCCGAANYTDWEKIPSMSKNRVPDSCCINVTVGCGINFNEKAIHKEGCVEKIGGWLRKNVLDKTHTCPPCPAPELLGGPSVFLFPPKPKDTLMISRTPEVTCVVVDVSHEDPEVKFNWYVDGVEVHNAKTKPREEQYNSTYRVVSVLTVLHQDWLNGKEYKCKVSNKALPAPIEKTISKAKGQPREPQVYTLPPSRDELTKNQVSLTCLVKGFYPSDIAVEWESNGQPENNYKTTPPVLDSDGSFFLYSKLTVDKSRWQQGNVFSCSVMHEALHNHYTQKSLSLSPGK
Assay: SPR Biacore, mAb captured, 25C
Report only the number, with the unit RU understood.

Exercise: So what's the measured 100 nM Ag Bound (RU) for this one? H1M12451N (antibody, V domains shown) VH: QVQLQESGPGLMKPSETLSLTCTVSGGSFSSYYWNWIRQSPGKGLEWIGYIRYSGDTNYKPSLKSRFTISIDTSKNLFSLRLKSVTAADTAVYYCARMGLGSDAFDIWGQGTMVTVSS VL: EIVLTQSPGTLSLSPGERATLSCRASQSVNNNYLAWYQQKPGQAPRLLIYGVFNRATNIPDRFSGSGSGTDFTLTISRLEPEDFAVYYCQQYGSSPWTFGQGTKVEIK
Solution: 107

Could you now look at the following binder, please?
Exercise: Look up 100 nM Ag Bound (RU): H2M12387N (antibody, V domains shown, also called H2aM12387N) VH: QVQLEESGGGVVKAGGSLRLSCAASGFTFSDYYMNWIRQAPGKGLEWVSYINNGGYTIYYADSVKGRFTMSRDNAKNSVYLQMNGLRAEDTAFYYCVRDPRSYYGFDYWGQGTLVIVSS VL: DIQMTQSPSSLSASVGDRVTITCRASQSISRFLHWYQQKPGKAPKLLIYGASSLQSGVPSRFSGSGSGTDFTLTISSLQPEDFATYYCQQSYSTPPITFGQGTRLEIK
Solution: 164
